# System: Rattus norvegicus
# test_name: Decrease in hepatic cholesterol level in hypercholesterolemic Wistar rat at 20 mg/kg, po for 1 week with diet
# Format: functional
Activity values by entry
# output: numeric value plus its unit

These recorded examples may help you get a feel for the data.
{"compound": "Brc1ccccc1/C=C/CSSC/C=C/c1ccccc1Br", "tested_on": "Rattus norvegicus", "Activity": "2.07 mg/dL"}
{"compound": "Clc1ccc(/C=C/CSSC/C=C/c2ccc(Cl)cc2Cl)c(Cl)c1", "tested_on": "Rattus norvegicus", "Activity": "2.04 mg/dL"}

// assay Rattus norvegicus, entry C=CCS[S+]([O-])CC=C (centres undefined) , Activity value = 2.15 mg/dL

// assay Rattus norvegicus, entry `CC[C@H](C)C(=O)O[C@H]1C[C@@H](C)C=C2C=C[C@H](C)[C@H](CC[C@@H]3C[C@@H](O)CC(=O)O3)[C@H]21` , Activity value = 1.6 mg/dL

// assay Rattus norvegicus, entry `FC(F)(F)c1ccc(/C=C/CSSC/C=C/c2ccc(C(F)(F)F)cc2)cc1` , Activity value = 2.12 mg/dL

// assay Rattus norvegicus, entry `Fc1ccc(/C=C/CSSC/C=C/c2ccc(F)cc2)cc1` , Activity value = 2.07 mg/dL

// assay Rattus norvegicus, entry `O=[N+]([O-])c1ccc(/C=C/CSSC/C=C/c2ccc([N+](=O)[O-])cc2)cc1` , Activity value = 1.97 mg/dL

// assay Rattus norvegicus, entry `Clc1ccccc1/C=C/CSSC/C=C/c1ccccc1Cl` , Activity value = 1.87 mg/dL

// assay Rattus norvegicus, entry `Brc1ccc(/C=C/CSSC/C=C/c2ccc(Br)cc2Br)c(Br)c1` , Activity value = 2.12 mg/dL
